Data provenance: patent US20260035367A1

Molecular target: Recombinant human PKC-theta (His-tagged 362-706) (Homo sapiens, UniProt Q04759)
Construct: Recombinant human PKC-theta (His-tagged 362-706); His
Sequence (Q04759 362-706): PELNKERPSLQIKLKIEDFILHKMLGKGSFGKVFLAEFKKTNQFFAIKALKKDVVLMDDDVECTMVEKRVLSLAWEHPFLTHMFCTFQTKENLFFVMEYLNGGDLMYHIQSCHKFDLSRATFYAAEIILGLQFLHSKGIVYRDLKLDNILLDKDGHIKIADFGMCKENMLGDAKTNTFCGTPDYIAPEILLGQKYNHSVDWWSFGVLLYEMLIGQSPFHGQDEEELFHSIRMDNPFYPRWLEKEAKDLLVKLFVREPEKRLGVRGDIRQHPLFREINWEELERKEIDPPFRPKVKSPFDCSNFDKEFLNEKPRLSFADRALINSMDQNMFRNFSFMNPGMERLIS
Experiment: PKC-theta inhibition assay (HTRF KinEASE kit)
Assay type: biochemical
Conditions: ATP 6.5 μM; STK substrate 525 nM; binned A to H; read-out: PKC-theta HTRF pIC50 (binned) (converted)
Procedure: PKC-theta and PKC-delta biochemical activities were measured using the PKC-theta HTRF KinEASEkit kit, according to manufacturer's instructions (Cisbio, catalogue number 61ST1PEJ). […] The ratio of acceptor and donor emission signals was calculated for each well. Percent inhibition values were calculated from the HTRF ratios at different doses and fitted to a 4-parameter logistic curve to determine IC50 values (see Table 2).
Catalogue of IC50 values
measured.endpoint: IC50

[
  {
    "molecule": "CCC1C(=O)Nc2nccc(-c3cccc(N4CCNCC4)c3)c21 (stereo not drawn)",
    "tgt": "Recombinant human PKC-theta (His-tagged 362-706) (Homo sapiens, UniProt Q04759)",
    "result": "316 to 1000 nM"
  },
  {
    "molecule": "O=C1Nc2nccc(-c3cc(F)cc(N4CCNCC4)c3)c2C12CCC2",
    "tgt": "Recombinant human PKC-theta (His-tagged 362-706) (Homo sapiens, UniProt Q04759)",
    "result": "31.6 to 100 nM"
  },
  {
    "molecule": "CC1(C)C(=O)Nc2nccc(-c3cc(C(F)(F)F)cc(N4CCNCC4C(F)F)n3)c21 (stereo not drawn)",
    "tgt": "Recombinant human PKC-theta (His-tagged 362-706) (Homo sapiens, UniProt Q04759)",
    "result": "1 to 3.16 nM"
  },
  {
    "molecule": "C[C@H]1CCN(c2cc(C(F)(F)F)cc(-c3ccnc4c3C(C)(C)C(=O)N4)n2)CCN1",
    "tgt": "Recombinant human PKC-theta (His-tagged 362-706) (Homo sapiens, UniProt Q04759)",
    "result": "3.16 to 10 nM"
  },
  {
    "molecule": "C[C@@H]1CN(c2cc(C(F)(F)F)cc(-c3ccnc4c3[C@](C)(O)C(=O)N4)n2)CCN1 (single isomer, unassigned)",
    "tgt": "Recombinant human PKC-theta (His-tagged 362-706) (Homo sapiens, UniProt Q04759)",
    "result": "10 to 31.6 nM"
  },
  {
    "molecule": "C[C@@H]1CNCCN1c1cc(Cl)cc(-c2c(F)cnc3c2C(C)(C)C(=O)N3)n1",
    "tgt": "Recombinant human PKC-theta (His-tagged 362-706) (Homo sapiens, UniProt Q04759)",
    "result": "3.16 to 10 nM"
  },
  {
    "molecule": "CN1CCN(c2cc(C(F)(F)F)cc(-c3ccnc4c3C(C)(C)C(=O)N4)n2)CC1",
    "tgt": "Recombinant human PKC-theta (His-tagged 362-706) (Homo sapiens, UniProt Q04759)",
    "result": "10 to 31.6 nM"
  },
  {
    "molecule": "CC1(C)C(=O)Nc2nccc(-c3cc(C(F)(F)F)cc(N4CCN[C@@H](CO)C4)n3)c21",
    "tgt": "Recombinant human PKC-theta (His-tagged 362-706) (Homo sapiens, UniProt Q04759)",
    "result": "1 to 3.16 nM"
  },
  {
    "molecule": "CC[C@@]1(C)C(=O)Nc2nccc(-c3cc(C(C)(F)F)cc(N4CCCNCC4)n3)c21 (single isomer, unassigned)",
    "tgt": "Recombinant human PKC-theta (His-tagged 362-706) (Homo sapiens, UniProt Q04759)",
    "result": "31.6 to 100 nM"
  },
  {
    "molecule": "CCC1(C)C(=O)Nc2ncc(F)c(-c3cc(C(F)(F)F)cc(N4CCNC[C@H]4C)n3)c21 (stereo partly drawn)",
    "tgt": "Recombinant human PKC-theta (His-tagged 362-706) (Homo sapiens, UniProt Q04759)",
    "result": "3.16 to 10 nM"
  },
  {
    "molecule": "CC1(C)C(=O)Nc2nccc(-c3cc(OC(F)F)cc(N4CCNCC4)n3)c21",
    "tgt": "Recombinant human PKC-theta (His-tagged 362-706) (Homo sapiens, UniProt Q04759)",
    "result": "31.6 to 100 nM"
  },
  {
    "molecule": "CC[C@@]1(C)C(=O)Nc2nccc(-c3cc(C(F)(F)F)cc(N4CCNC[C@H]4C)n3)c21 (single isomer, unassigned)",
    "tgt": "Recombinant human PKC-theta (His-tagged 362-706) (Homo sapiens, UniProt Q04759)",
    "result": "3.16 to 10 nM"
  },
  {
    "molecule": "C[C@@H]1CN(c2cc(C(F)(F)F)cc(-c3ccnc4c3C(C)(C)C(=O)N4)n2)[C@H](C)CN1",
    "tgt": "Recombinant human PKC-theta (His-tagged 362-706) (Homo sapiens, UniProt Q04759)",
    "result": "1 to 3.16 nM"
  },
  {
    "molecule": "C[C@H]1CNCCCN1c1cc(C(F)(F)F)cc(-c2ccnc3c2C(C)(C)C(=O)N3)n1",
    "tgt": "Recombinant human PKC-theta (His-tagged 362-706) (Homo sapiens, UniProt Q04759)",
    "result": "3.16 to 10 nM"
  },
  {
    "molecule": "C[C@H]1CNCCN1c1cc(Cl)cc(-c2ccnc3c2[C@](C)(O)C(=O)N3)n1 (single isomer, unassigned)",
    "tgt": "Recombinant human PKC-theta (His-tagged 362-706) (Homo sapiens, UniProt Q04759)",
    "result": "3.16 to 10 nM"
  }
]
